# Assay Target: Serine/threonine-protein kinase PLK1 (Homo sapiens)
Experimental Endpoint: ΔTm (°C)

>>> print(df.to_string())
                           chem_smiles  experimental_endpoint  measured_number
0  CCOc1cc2ncnc(Nc3cccc(Br)c3)c2cc1OCC                    ΔTm              0.2
1     O=C(O)Cc1ccc(O)c([N+](=O)[O-])c1                    ΔTm              0.4
2      Ic1cccc(CSc2nnc(-c3ccncc3)o2)c1                    ΔTm             -0.9
3               O=c1ccc2ccc(O)c(O)c2o1                    ΔTm             -0.1
4    Oc1cc(O)cc(/C=C/c2ccc(O)c(O)c2)c1                    ΔTm              2.3

* * *

Each entry below carries its measured ΔTm, system: Serine/threonine-protein kinase pim-1 (Homo sapiens).
Experimental Endpoint: ΔTm (°C)

>>> print(df.to_string())
                                chem_smiles  experimental_endpoint  measured_number
0  CCOc1cc(/C=C(\C#N)C(N)=O)cc(CSc2ccccc2)c1O                    ΔTm             -0.1
1               Cc1cc2ncc(-c3ccccc3)nc2cc1C                    ΔTm              0.2
2  Oc1cccc(-c2nc(N3CCOCC3)c3oc4ncccc4c3n2)c1                    ΔTm             -0.4

* * *

Each entry below carries its measured ΔTm, system: TRAF2 and NCK-interacting protein kinase (Homo sapiens) (UniProt Q9UKE5).
Sequence (Q9UKE5 whole entry, looked up): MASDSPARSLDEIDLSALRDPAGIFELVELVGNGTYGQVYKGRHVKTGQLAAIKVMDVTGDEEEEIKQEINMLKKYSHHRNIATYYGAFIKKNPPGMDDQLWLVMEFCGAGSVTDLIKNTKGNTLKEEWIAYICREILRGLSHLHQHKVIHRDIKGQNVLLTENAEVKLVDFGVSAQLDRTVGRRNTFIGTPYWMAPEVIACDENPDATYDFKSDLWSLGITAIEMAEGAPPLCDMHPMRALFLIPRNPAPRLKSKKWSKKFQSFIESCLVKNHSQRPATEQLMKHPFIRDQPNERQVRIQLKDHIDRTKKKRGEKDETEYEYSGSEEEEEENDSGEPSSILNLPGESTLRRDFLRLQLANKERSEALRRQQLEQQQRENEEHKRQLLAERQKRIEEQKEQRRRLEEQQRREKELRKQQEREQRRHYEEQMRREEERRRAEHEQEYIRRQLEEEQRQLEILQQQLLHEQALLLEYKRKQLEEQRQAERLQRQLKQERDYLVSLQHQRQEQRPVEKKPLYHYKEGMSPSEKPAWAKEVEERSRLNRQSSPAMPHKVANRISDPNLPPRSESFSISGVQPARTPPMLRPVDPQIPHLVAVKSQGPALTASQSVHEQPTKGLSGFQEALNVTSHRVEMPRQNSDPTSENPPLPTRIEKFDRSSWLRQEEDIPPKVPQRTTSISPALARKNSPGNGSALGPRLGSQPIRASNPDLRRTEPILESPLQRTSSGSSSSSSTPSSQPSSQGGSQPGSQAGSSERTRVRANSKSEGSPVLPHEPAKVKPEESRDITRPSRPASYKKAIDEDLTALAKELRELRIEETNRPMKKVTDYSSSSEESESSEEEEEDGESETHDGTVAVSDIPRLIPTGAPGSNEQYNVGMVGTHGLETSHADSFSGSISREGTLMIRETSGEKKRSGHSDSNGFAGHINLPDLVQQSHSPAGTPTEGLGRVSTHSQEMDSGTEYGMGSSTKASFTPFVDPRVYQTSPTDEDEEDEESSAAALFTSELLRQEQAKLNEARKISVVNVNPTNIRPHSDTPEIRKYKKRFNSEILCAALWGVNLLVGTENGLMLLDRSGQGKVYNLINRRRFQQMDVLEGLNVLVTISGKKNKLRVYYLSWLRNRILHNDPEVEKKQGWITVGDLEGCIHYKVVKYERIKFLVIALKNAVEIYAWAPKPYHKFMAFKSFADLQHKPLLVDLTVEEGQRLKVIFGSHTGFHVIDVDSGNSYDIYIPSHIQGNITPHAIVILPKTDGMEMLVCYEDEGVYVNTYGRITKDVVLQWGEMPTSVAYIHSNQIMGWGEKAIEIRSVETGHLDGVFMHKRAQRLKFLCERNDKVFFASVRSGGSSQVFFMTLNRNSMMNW
Experimental Endpoint: ΔTm (°C)

>>> df
                                 chem_smiles                              assay_target  experimental_endpoint  unit_symbol  measured_number
 0  COc1nccc(-c2c(-c3ccc(F)cc3)ncn2[C@H]2CC[C@H](O)CC2)n1  TRAF2 and NCK-interacting protein kinase (Homo sapiens) (UniProt Q9UKE5)                    ΔTm           °C             -0.5
 1              Brc1c(Br)c(Br)c2[nH]nnc2c1Br  TRAF2 and NCK-interacting protein kinase (Homo sapiens) (UniProt Q9UKE5)                    ΔTm           °C             -0.8
 2           CCN1/C(=C/C(C)=O)Sc2ccc(OC)cc21  TRAF2 and NCK-interacting protein kinase (Homo sapiens) (UniProt Q9UKE5)                    ΔTm           °C              0.1
 3      O=S(=O)(c1cccc2c(Cl)cccc12)N1CCCNCC1  TRAF2 and NCK-interacting protein kinase (Homo sapiens) (UniProt Q9UKE5)                    ΔTm           °C              0.1
 4   N#C/C(=C\c1ccc(O)c(O)c1)C(=O)NCc1ccccc1  TRAF2 and NCK-interacting protein kinase (Homo sapiens) (UniProt Q9UKE5)                    ΔTm           °C              0.8
 5    O=C1Cc2c([nH]c3ccc(Br)cc23)-c2ccccc2N1  TRAF2 and NCK-interacting protein kinase (Homo sapiens) (UniProt Q9UKE5)                    ΔTm           °C              6.7
 6  COc1cc2ncnc(Nc3ccc(F)c(Cl)c3)c2cc1OCCCN1CCOCC1  TRAF2 and NCK-interacting protein kinase (Homo sapiens) (UniProt Q9UKE5)                    ΔTm           °C               -1
 7                 O=C(O)/C=C/c1cc(CO)ccc1CO  TRAF2 and NCK-interacting protein kinase (Homo sapiens) (UniProt Q9UKE5)                    ΔTm           °C              0.8
 8          COc1cccc(-c2cc(=O)c3ccccc3o2)c1N  TRAF2 and NCK-interacting protein kinase (Homo sapiens) (UniProt Q9UKE5)                    ΔTm           °C             -0.1
 9                   Nc1n[nH]c2nc3ccccc3nc12  TRAF2 and NCK-interacting protein kinase (Homo sapiens) (UniProt Q9UKE5)                    ΔTm           °C              0.7
10  CN(C)S(=O)(=O)c1ccc2c(c1)/C(=C/c1cc3c([nH]1)CCCC3)C(=O)N2  TRAF2 and NCK-interacting protein kinase (Homo sapiens) (UniProt Q9UKE5)                    ΔTm           °C              4.2
11  Cc1nc2sccn2c(=O)c1CCN1CCC(=C(c2ccccc2)c2ccc(F)cc2)CC1  TRAF2 and NCK-interacting protein kinase (Homo sapiens) (UniProt Q9UKE5)                    ΔTm           °C              2.9
12         O=c1sn(Cc2ccccc2)c(=S)n1Cc1ccccc1  TRAF2 and NCK-interacting protein kinase (Homo sapiens) (UniProt Q9UKE5)                    ΔTm           °C                0
13   CCOC(=O)c1cnc2oc3ccc(O)cc3c2c1-c1ccccc1  TRAF2 and NCK-interacting protein kinase (Homo sapiens) (UniProt Q9UKE5)                    ΔTm           °C              1.3
14           Ic1cccc(CSc2nnc(-c3ccncc3)o2)c1  TRAF2 and NCK-interacting protein kinase (Homo sapiens) (UniProt Q9UKE5)                    ΔTm           °C             -0.3
15            O=C1c2ccccc2-c2n[nH]c3cccc1c23  TRAF2 and NCK-interacting protein kinase (Homo sapiens) (UniProt Q9UKE5)                    ΔTm           °C                3
16  CC(=O)O/N=C1/C(=C2/C(=O)Nc3cc(Br)ccc32)Nc2ccccc21  TRAF2 and NCK-interacting protein kinase (Homo sapiens) (UniProt Q9UKE5)                    ΔTm           °C              0.4

* * *

Each entry below carries its measured ΔTm, system: Casein kinase I isoform gamma-3 (Homo sapiens) (UniProt Q9Y6M4).
Sequence (Q9Y6M4 whole entry, looked up, canonical isoform): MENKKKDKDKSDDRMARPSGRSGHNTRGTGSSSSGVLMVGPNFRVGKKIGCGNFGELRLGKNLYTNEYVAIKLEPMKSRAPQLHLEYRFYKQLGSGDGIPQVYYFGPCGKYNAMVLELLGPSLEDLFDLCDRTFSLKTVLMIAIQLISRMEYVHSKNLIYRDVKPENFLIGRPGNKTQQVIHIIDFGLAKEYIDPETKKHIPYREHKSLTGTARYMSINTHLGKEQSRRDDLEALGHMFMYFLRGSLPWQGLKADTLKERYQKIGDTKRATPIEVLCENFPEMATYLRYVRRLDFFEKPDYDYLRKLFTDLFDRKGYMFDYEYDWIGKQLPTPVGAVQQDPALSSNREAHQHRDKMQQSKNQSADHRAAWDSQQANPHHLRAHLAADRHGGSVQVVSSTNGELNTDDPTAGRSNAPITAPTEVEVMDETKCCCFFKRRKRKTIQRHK
Experimental Endpoint: ΔTm (°C)

>>> df
                                    molecule  experimental_endpoint  measured_number
 0             O=C1Nc2ccccc2/C1=C/c1cnc[nH]1                    ΔTm              1.5
 1   O=C1Nc2ccc(I)cc2/C1=C1/Nc2ccccc2/C1=N\O                    ΔTm              1.8
 2   N#C/C(=C\c1ccc(O)c(O)c1)C(=O)NCc1ccccc1                    ΔTm              0.5
 3  CSc1nc(-c2ccc(F)cc2)c(-c2ccnc(NC(C)c3ccccc3)c2)[nH]1 (racemic)                    ΔTm              3.4
 4  CC(C)c1cc(/C=C(\C#N)C(=O)NCCCc2ccccc2)cc(C(C)C)c1O                    ΔTm              0.7
 5    N#C/C(=C\c1ccc(O)c(O)c1)C(=O)Nc1ccccc1                    ΔTm              1.2
 6  Cc1[nH]c(/C=C2\C(=O)Nc3ccc(S(=O)(=O)N(C)c4cccc(Cl)c4)cc32)c(C)c1C(=O)N1CCN(C)CC1                    ΔTm              1.1
 7  COC(=O)[C@]1(O)C[C@@H]2O[C@@]1(C)n1c3ccccc3c3c4c(c5c6ccccc6n2c5c31)C(=O)NC4 (single isomer, unassigned)                    ΔTm              0.2
 8  Nc1n[nH]c2nnc(-c3c(-c4ccccc4)nn4ccccc34)cc12                    ΔTm              1.1
 9  COc1cc(/C=C/C(=O)CC(=O)/C=C/c2ccc(O)c(OC)c2)ccc1O [CURCUMIN]                    ΔTm              0.3
10  CN(C)c1ccc(CC2C(=O)Nc3ccccc32)cc1 (stereo not given)                    ΔTm              0.8
11  Nc1ncnc2c1c(I)cn2[C@@H]1O[C@H](CO)[C@@H](O)[C@H]1O                    ΔTm              2.7
12    COc1ccc(Cl)cc1NC(=O)Nc1cc(C)nc2ccccc12                    ΔTm              0.9
13  CCOc1cc(/C=C(\C#N)C(N)=O)cc(CSc2ccccc2)c1O                    ΔTm              0.4
14      O=C1Nc2ccccc2/C1=C1/Nc2ccccc2/C1=N\O                    ΔTm              2.7
15  COc1nccc(-c2c(-c3ccc(F)cc3)ncn2[C@H]2CC[C@H](O)CC2)n1                    ΔTm              1.2
16  NS(=O)(=O)c1ccc(Nc2nc(OCC3CCCCC3)c3nc[nH]c3n2)cc1                    ΔTm              2.2
17          O=c1cc(N2CCOCC2)oc2c1ccc1ccccc12                    ΔTm                0
18   Cc1cc(Nc2nc(-c3ccccc3)nc3ccccc23)n[nH]1                    ΔTm              2.8
19  Cn1cc(C2=C(c3cn(CCCSC(=N)N)c4ccccc34)C(=O)NC2=O)c2ccccc21                    ΔTm                1
20  O=C(Nc1cccc(Nc2cc(Nc3cccc(C(F)(F)F)c3)ncn2)c1)C1CC1                    ΔTm              0.2
21           Ic1cccc(CSc2nnc(-c3ccncc3)o2)c1                    ΔTm              0.4
22   CN(C)c1ncnc2nc[nH]c12 [DIMETHYLADENINE]                    ΔTm              0.5
23  C[C@@H]1C[C@H]2O[C@@H]2/C=C\C=C\C(=O)Cc2c(Cl)c(O)cc(O)c2C(=O)O1 [RADICICOL]                    ΔTm              0.1
24      O=c1c(-c2ccc(O)cc2)coc2cc(O)cc(O)c12                    ΔTm              1.6
